The reported numbers originate from patent US20150203579A1.

A collection of binders and their measured % blocking at 200 nM antibody
MEASUREMENT_TARGET: T1, recombinant human PD-1 dimer expressed with a C-terminal mouse IgG2a Fc tag (human)
T1 construct: also called hPD-1-mFc
T1 sequence (chain, as listed by the source limits assumed): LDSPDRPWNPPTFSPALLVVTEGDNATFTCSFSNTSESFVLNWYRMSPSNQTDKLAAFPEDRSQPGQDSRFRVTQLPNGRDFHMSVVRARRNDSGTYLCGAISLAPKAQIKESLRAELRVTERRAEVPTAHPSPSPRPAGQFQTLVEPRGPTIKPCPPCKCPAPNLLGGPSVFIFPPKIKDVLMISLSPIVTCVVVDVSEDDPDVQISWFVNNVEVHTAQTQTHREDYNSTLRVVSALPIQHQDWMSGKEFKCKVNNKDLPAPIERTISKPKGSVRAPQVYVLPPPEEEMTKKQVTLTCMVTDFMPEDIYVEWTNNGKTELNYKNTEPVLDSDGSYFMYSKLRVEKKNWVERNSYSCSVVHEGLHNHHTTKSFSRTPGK
ASSAY_INFO: competition ELISA: 1.5 nM hPD-1-mFc to coated hPD-L1-hFc
Lab book: enter the figure in %, no units written.

H1M7800N (antibody, V domains shown, human variable regions, mouse IgG1 Fc) VH: EVQLVESGGGLVQPGGSLRLSCAASGFTVSNNYMSWVRQAPGKGLEWVSVIYSGGFTYYTDSVKGRFTISRHNSKNTLYLQMNSLRAEDTAVYYCARYYYDTSDYWTFFDYWGQGTLVTVSS VL: EIVMTQSPATLSVSPGERATLSCRASQSVSSNLAWYQQKPGQAPRLLIYGASTRATGIPARFSGSGSGTEFTLTISSLQSGDFAVYYCQQYNNWPLTFGGGTKVEIN = 83
H2aM7780N (antibody, V domains shown, human variable regions, mouse IgG2a Fc; also called H2M7780N) VH: QVQLVESGGGVVQSGRSLRLSCAASGFTFSSYGMHWVRQAPGKGLEWVAVIWYDGSNIYYSDSVKGRFTISRANSKNTLYLQMNSLRAEDTAVYYCARPGHWNYFFEYWGQGTLVTVSS VL: DIQMTQSPSSLSASVGDRVTITCRASQSINNYLNWYQQKPGKAPKLLIYTASSLQSGVPSRFSGSGSGTDFTLTISSLQPEDFATYYCQQSYSTPPLTFGQGTQLEIK = 94

We now examine a further binder.
[Q] Quick one: % blocking at 200 nM antibody for H1M7799N (antibody, V domains shown, human variable regions, mouse IgG1 Fc) VH: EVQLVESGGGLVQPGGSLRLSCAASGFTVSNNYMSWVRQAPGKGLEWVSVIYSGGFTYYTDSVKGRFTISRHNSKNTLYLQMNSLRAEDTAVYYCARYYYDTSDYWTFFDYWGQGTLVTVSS VL: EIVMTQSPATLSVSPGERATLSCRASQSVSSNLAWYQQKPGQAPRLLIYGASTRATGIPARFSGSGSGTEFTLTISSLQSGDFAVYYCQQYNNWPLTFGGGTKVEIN ?
[A] 82
